- measurementTarget: GSPT1 (Homo sapiens, UniProt P15170+Q96SW2)
- Sequence (P15170 whole entry): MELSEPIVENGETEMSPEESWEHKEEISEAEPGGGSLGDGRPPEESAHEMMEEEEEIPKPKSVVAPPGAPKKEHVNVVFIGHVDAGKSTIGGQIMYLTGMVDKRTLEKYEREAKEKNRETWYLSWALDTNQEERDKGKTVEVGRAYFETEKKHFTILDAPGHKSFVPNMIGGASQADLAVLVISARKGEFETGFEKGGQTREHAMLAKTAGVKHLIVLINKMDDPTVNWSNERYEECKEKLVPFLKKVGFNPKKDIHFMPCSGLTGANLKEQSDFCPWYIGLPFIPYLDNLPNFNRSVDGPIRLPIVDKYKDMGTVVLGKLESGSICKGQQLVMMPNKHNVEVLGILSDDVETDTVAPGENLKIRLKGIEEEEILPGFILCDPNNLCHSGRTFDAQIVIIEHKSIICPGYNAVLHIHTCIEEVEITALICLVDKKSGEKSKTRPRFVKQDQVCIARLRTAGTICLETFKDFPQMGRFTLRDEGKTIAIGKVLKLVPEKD
- Sequence (Q96SW2 whole entry): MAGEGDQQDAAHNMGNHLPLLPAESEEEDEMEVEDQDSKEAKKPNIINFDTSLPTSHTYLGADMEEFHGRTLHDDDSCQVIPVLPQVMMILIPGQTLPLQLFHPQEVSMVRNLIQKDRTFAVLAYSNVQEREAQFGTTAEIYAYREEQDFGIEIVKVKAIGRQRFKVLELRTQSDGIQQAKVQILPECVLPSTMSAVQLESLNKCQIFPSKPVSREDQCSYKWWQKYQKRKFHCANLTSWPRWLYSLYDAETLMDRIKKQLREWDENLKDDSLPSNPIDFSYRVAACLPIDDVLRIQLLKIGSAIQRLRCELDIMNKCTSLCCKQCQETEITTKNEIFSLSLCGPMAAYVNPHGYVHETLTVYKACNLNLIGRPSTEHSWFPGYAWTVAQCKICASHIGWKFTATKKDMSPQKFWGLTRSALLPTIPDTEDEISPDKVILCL
- Sequence (Q16531 whole entry partner): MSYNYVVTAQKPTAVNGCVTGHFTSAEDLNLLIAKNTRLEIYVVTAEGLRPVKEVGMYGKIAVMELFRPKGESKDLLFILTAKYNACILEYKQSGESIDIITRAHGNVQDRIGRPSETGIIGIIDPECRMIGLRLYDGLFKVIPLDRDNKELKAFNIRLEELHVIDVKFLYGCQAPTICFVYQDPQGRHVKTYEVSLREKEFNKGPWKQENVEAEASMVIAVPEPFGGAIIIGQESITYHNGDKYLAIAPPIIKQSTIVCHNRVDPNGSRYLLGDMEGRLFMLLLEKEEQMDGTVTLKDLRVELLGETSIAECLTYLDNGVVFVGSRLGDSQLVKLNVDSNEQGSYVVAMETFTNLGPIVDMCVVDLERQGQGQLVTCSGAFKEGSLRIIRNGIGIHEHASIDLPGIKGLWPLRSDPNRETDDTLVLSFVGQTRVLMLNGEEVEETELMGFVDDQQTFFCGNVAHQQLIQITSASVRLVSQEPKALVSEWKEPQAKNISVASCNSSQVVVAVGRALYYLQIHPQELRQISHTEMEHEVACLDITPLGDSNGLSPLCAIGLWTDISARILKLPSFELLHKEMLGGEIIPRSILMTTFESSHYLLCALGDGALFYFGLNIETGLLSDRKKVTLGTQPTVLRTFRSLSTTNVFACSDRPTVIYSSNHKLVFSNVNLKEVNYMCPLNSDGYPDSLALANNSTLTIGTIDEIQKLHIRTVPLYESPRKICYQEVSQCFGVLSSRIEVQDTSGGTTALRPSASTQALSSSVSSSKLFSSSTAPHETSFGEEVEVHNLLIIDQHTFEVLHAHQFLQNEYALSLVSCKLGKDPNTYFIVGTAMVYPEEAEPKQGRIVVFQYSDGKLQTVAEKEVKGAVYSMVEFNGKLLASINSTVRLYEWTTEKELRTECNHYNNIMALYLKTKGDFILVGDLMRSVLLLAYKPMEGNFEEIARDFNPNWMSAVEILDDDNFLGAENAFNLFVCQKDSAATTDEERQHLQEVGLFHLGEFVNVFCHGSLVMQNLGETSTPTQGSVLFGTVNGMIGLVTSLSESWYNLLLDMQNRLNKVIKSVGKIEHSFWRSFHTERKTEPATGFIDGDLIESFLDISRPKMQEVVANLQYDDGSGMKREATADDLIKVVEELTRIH
- protocolDescription: Prolabel quantification of GSPT1 protein levels in 293GT cells
- Format: cell-based
- cond: Prolabel assay, read-out: GSPT1 EC50
- Description: The Prolabel system from DiscoverX was used to develop high-throughput and quantitative assays to measure changes in IKZF1, IKZF2 and GSPT1 protein levels in response to compounds. […] The complementary fragment of beta-galactosidase (from DiscoverX), is added to the prolabel tag to form an active beta galactosidase enzyme whose activity can be precisely measured. In this way, the levels of a fusion protein with the prolabel tag can be quantified in cell lysates. […]
readoutName: DC50

compound="O=C1CCC(N2Cc3cc(C4CCN(Cc5ccc(Cl)cc5Cl)CC4)ccc3C2=O)C(=O)N1 (stereo not shown)" testresult="> 30 µM"
compound="N#Cc1cccc(CN2CCC(c3ccc4c(c3)CN(C3CCC(=O)NC3=O)C4=O)CC2)c1 (stereo not shown)" testresult="> 30 µM"
compound="O=C1CCC(N2Cc3cc(C4CCN(Cc5ccc(F)cc5)CC4)ccc3C2=O)C(=O)N1 (stereo not shown)" testresult="> 50 µM"
compound="C[C@H]1CC(c2ccc3c(c2)CN(C2CCC(=O)NC2=O)C3=O)CCN1Cc1ccccc1 (stereo partly shown)" testresult="> 50 µM"
compound="CN1CCN(Cc2cc(CN3CCC(c4ccc5c(c4)CN(C4CCC(=O)NC4=O)C5=O)CC3)ccc2O)CC1 (stereo not shown)" testresult="> 30 µM"
compound="O=C1CCC(N2Cc3cc([C@@H]4CCCNCC4)ccc3C2=O)C(=O)N1 (single isomer, unassigned)" testresult="> 50 µM"
compound="O=C1CCC(N2Cc3cc(C4CCN(Cc5ccc6c(c5)OCCCO6)CC4)ccc3C2=O)C(=O)N1 (stereo not shown)" testresult="> 30 µM"
